Overview of recorded inhibition at 0.1 µM for various compounds
- STUDY_SYSTEM: Human adrenergic α2A receptor (Homo sapiens, UniProt P08913)
- Sequence (P08913 whole entry): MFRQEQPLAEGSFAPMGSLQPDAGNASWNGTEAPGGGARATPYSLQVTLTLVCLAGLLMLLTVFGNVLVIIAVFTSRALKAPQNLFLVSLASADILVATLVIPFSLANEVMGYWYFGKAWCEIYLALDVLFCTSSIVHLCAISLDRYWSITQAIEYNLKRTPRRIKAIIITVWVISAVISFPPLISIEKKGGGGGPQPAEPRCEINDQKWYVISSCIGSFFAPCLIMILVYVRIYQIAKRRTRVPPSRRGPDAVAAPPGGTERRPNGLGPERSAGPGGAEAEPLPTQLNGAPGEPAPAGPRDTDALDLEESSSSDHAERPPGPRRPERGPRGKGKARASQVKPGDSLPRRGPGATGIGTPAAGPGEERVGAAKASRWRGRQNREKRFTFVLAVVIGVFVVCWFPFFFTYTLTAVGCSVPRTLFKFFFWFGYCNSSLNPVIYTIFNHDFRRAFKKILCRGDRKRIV
- ASSAY_METHOD_TEXT: Radioligand binding, adrenergic α2A (Protocol Group A)
- Design: expressed in transfected cells; host or cells: insect Sf9 cells
- COND: 0.1 μM compound, [3H]MK-912, read-out: percent inhibition of specific binding, Adrenergic α2A
MEASURED_PROPERTY: inhibition at 0.1 µM

COMPOUND: Cc1ccc2c(c1)c1c(n2CCc2cncc(S(C)(=O)=O)c2)CCN(C)C1
STUDY_SYSTEM: Human adrenergic α2A receptor (Homo sapiens, UniProt P08913)
REPORTED: 3%
//
COMPOUND: Cc1ccc2c(c1)c1c(n2CC(OC(=O)N2CCCC2)c2ccncc2)CCN(C)C1 (single isomer, unassigned) [4b]
STUDY_SYSTEM: Human adrenergic α2A receptor (Homo sapiens, UniProt P08913)
REPORTED: 28%
//
COMPOUND: Cc1ccc2c(c1)c1c(n2CC(C)(O)c2ccc(F)nc2)CCN2CCCC12 (single isomer, unassigned) [6a]
STUDY_SYSTEM: Human adrenergic α2A receptor (Homo sapiens, UniProt P08913)
REPORTED: 59%
//
COMPOUND: Cc1ccc2c(c1)c1c(n2CC(C)(O)c2ccc(F)nc2)CCN2CCCC12 (stereo not shown) [6b]
STUDY_SYSTEM: Human adrenergic α2A receptor (Homo sapiens, UniProt P08913)
REPORTED: 29%

* * *

- STUDY_SYSTEM: Human adrenergic α2B receptor (Homo sapiens, UniProt P18089)
- Sequence (P18089 whole entry): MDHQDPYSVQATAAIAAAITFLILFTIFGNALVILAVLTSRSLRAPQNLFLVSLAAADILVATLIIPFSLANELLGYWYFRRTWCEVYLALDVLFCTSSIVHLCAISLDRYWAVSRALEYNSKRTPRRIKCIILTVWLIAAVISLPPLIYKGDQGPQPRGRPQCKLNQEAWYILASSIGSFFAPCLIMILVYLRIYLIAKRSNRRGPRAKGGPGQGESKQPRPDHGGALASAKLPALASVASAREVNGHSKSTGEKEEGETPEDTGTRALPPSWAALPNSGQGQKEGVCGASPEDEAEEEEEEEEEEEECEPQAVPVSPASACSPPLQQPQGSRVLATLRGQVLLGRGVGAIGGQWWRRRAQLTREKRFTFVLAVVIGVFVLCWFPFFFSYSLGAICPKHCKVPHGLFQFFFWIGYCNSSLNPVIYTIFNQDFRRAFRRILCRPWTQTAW
- ASSAY_METHOD_TEXT: Radioligand binding, adrenergic α2B (Protocol Group B)
- Set-up: purchased Milipore (Millipore)
- COND: Protocol Group B; estimated Ki; read-out: Ki α2B
pKi: −log10 of the molar value.
Overview of recorded pKi for various molecules
MEASURED_PROPERTY: pKi

MOLECULE: OC(Cn1c2c(c3cc(Cl)cc(F)c31)C1CCCN1CC2)c1ccncc1 (single isomer, unassigned) [135b]
REPORTED: 9.16

MOLECULE: Cc1ccc2c(c1)c1c(n2CC(C)(O)c2ccncc2)CCN2CCCC12 (single isomer, unassigned) [13b]
REPORTED: 8.91

MOLECULE: Cc1ccc2c(c1)c1c(n2CC(O)c2ccncc2F)CCN2CCCC12 (single isomer, unassigned) [14b]
REPORTED: 8.96

MOLECULE: Cc1cc(F)cc2c3c(n(CC(C)(O)c4cccnc4)c12)CCN1CCCC31 (single isomer, unassigned) [75c]
REPORTED: 9.01

* * *

- STUDY_SYSTEM: Human adrenergic α1B receptor (Homo sapiens)
- Sequence (P35368 whole entry): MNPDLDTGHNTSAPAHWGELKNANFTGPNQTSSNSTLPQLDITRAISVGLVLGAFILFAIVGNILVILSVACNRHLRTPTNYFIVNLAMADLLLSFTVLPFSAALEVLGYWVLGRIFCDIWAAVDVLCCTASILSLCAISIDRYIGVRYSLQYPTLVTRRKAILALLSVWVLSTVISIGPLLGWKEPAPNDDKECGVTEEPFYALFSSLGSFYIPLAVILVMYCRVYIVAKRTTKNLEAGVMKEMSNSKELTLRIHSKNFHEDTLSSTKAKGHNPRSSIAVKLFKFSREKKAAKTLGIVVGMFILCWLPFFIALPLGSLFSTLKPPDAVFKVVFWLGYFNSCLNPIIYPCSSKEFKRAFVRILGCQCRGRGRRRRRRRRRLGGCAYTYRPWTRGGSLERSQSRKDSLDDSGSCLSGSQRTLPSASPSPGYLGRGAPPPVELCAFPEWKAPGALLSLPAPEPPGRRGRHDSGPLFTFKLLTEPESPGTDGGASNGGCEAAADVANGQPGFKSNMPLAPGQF
- ASSAY_METHOD_TEXT: Radioligand binding, adrenergic α1B (Protocol Group B)
- Set-up: purchased Milipore (Millipore)
- COND: 0.3 μM compound; Protocol Group B; 0.3 µM
MEASURED_PROPERTY: Percentage inhibition of ligand binding, Adrenergic α1B (0.3 μM) (%)

COMPOUND: Cc1cc(F)cc2c3c(n(CC(C)(O)c4cccnc4)c12)CC1CCCN1C3 (single isomer, unassigned) [76b]
REPORTED: 3

COMPOUND: CC(O)(Cn1c2c(c3cc(F)cc(Cl)c31)C1CCCN1CC2)c1cccnc1 (single isomer, unassigned) [89d]
REPORTED: 54

COMPOUND: Cc1ccc2c(c1F)c1c(n2CC(C)(O)c2cccnc2)CCN2CCCC12 (single isomer, unassigned) [87c]
REPORTED: 86

COMPOUND: Cc1cc(F)c2c(c1)c1c(n2CC(O)c2ccncc2)CCN2CCCC12 (single isomer, unassigned) [137d]
REPORTED: 18

COMPOUND: Cc1ccc2c(c1)c1c(n2CC(C)(O)c2ccncc2)CCN2CCCC12 (single isomer, unassigned) [13c]
REPORTED: 28

COMPOUND: Cc1cc2c3c(n(CC(C)(O)c4ccncc4)c2cc1Cl)CCN1CCCC31 (single isomer, unassigned) [50c]
REPORTED: 43

COMPOUND: OC(Cn1c2c(c3cc(Cl)cc(F)c31)C1CCCN1CC2)c1ccncc1 (single isomer, unassigned) [135b]
REPORTED: 81

COMPOUND: Cc1ccc2c(c1)c1c(n2CC(C)(O)c2cccnc2)CC(CO)N(C)C1 (single isomer, unassigned) [15b]
REPORTED: 16

COMPOUND: Cc1cc(F)cc2c3c(n(CC(C)(O)c4cccnc4)c12)CCN1CCCC31 (single isomer, unassigned) [75c]
REPORTED: 69

COMPOUND: Cc1ccc2c(c1F)c1c(n2CC(C)(O)c2cccnc2)CCN2CCCC12 (single isomer, unassigned) [87d]
REPORTED: 67

COMPOUND: Cc1ccc2c(c1F)c1c(n2CC(C)(O)c2cccnc2)CCN2CCCC12 (single isomer, unassigned) [87a]
REPORTED: 27

COMPOUND: Cc1ccc2c(c1)c1c(n2CC(C)(O)c2ccncc2)CC2CCCN2C1 (single isomer, unassigned) [37c]
REPORTED: 37

COMPOUND: Cc1ccc2c(c1)c1c(n2CC(O)c2ccncc2)CNC2CCCC12 (single isomer, unassigned) [34b]
REPORTED: 12

COMPOUND: Cc1ccc2c(c1)c1c(n2CC(C)(O)c2cccnc2)CC2CCC1N2C (single isomer, unassigned) [101c]
REPORTED: 7
